Target: D(3) dopamine receptor (Homo sapiens) (UniProt P35462)
Sequence (P35462 whole entry, looked up): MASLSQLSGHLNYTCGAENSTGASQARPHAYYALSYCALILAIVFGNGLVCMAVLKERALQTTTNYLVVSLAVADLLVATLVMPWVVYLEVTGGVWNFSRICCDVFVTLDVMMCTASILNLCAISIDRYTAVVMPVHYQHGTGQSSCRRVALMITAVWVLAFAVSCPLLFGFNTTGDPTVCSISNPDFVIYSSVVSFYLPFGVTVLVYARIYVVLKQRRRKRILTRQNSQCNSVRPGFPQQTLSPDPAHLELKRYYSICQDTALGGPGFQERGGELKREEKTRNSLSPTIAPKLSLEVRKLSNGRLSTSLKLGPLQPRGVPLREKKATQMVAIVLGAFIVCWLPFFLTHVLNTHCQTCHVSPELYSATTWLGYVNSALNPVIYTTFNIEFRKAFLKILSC
Experiment: qHTS of D3 Dopamine Receptor Antagonist: qHTS
Details: D3R cells, DiscoveRx beta-arrestin luminescence, antagonist mode
Hit rate of the full screen: of about 360,000 compounds, about 9,100 (2.5%) were called active. About 4% were inconclusive and are not listed. Cut-off read from the data, not from the text of the source: active = max response below about -50%; inconclusive = no clear call, values can overlap the other calls; inactive = above that. This is one part of a sample in which actives are shown more often than they occur.
Result category, one only: Y (active), N (inactive)

Below, 5 compounds whose answers are already recorded.
>  <COMPOUND>
CC(=O)Nc1ccc(CNc2nc(NCCN(C)C)nc3cc(-c4ccccc4)sc23)cc1

>  <TGT>
D(3) dopamine receptor (Homo sapiens) (UniProt P35462)

>  <LABEL_VALUE>
N

$$$$
>  <COMPOUND>
COC(=O)C[C@H]1C=C[C@@H](NS(=O)(=O)c2ccc(C)cc2)[C@@H](CO)O1

>  <TGT>
D(3) dopamine receptor (Homo sapiens) (UniProt P35462)

>  <LABEL_VALUE>
N

$$$$
>  <COMPOUND>
CC(C)c1cc(Cn2c3ccccc3c(=O)n2C(C)Cn2cc(C3CC3)nn2)on1 (stereo not drawn)

>  <TGT>
D(3) dopamine receptor (Homo sapiens) (UniProt P35462)

>  <LABEL_VALUE>
N

$$$$
>  <COMPOUND>
Cc1cc(NC(=O)c2ccc(F)cc2)ccc1NC(=O)c1ccco1

>  <TGT>
D(3) dopamine receptor (Homo sapiens) (UniProt P35462)

>  <LABEL_VALUE>
Y

$$$$
>  <COMPOUND>
C#CCOCCOCCOCCNc1nc(N2CCN(C(=O)Cn3cc(CCO)nn3)CC2)nc(N2CCN(C(=O)[C@H](CCCCN)n3cc(CCCC)nn3)CC2)n1

>  <TGT>
D(3) dopamine receptor (Homo sapiens) (UniProt P35462)

>  <LABEL_VALUE>
N

$$$$

// param item: Cc1ccc(NC(=S)N(CCN(C)C)Cc2cccs2)cc1C ; yields the recorded call N

// param item: CC(=O)c1nn(-c2ccccc2)c(=Nc2ccccc2)cc1C ; yields the recorded call N

// param item: CC(C)C1C(=O)N(Cc2cn(CCC3OCCO3)nn2)CCS(=O)(=O)N1Cc1ccc(-c2ccccc2C(F)(F)F)cc1 (stereo not drawn) ; yields the recorded call N

// param item: C#CCOCCOCCOCCNc1nc(N2CCN(C(=O)CCCCCCCCCCNC(=O)[C@H]([C@@H](C)CC)n3cc(CCCCN=C(N)N)nn3)CC2)nc(N2CCN(C(=O)CCCCCCCCCCNC(=O)[C@H](CO)n3cc(CCCSC)nn3)CC2)n1 ; yields the recorded call Y

// param item: Cc1nccn1-c1ccc(NC(=O)[C@H]2O[C@@H](n3ccc(=O)[nH]c3=O)[C@H](O)[C@@H]2O)cc1 ; yields the recorded call N
